Test target: EHMT1 (Homo sapiens, UniProt Q9H9B1)
Sequence (Q9H9B1 whole entry, species assumed): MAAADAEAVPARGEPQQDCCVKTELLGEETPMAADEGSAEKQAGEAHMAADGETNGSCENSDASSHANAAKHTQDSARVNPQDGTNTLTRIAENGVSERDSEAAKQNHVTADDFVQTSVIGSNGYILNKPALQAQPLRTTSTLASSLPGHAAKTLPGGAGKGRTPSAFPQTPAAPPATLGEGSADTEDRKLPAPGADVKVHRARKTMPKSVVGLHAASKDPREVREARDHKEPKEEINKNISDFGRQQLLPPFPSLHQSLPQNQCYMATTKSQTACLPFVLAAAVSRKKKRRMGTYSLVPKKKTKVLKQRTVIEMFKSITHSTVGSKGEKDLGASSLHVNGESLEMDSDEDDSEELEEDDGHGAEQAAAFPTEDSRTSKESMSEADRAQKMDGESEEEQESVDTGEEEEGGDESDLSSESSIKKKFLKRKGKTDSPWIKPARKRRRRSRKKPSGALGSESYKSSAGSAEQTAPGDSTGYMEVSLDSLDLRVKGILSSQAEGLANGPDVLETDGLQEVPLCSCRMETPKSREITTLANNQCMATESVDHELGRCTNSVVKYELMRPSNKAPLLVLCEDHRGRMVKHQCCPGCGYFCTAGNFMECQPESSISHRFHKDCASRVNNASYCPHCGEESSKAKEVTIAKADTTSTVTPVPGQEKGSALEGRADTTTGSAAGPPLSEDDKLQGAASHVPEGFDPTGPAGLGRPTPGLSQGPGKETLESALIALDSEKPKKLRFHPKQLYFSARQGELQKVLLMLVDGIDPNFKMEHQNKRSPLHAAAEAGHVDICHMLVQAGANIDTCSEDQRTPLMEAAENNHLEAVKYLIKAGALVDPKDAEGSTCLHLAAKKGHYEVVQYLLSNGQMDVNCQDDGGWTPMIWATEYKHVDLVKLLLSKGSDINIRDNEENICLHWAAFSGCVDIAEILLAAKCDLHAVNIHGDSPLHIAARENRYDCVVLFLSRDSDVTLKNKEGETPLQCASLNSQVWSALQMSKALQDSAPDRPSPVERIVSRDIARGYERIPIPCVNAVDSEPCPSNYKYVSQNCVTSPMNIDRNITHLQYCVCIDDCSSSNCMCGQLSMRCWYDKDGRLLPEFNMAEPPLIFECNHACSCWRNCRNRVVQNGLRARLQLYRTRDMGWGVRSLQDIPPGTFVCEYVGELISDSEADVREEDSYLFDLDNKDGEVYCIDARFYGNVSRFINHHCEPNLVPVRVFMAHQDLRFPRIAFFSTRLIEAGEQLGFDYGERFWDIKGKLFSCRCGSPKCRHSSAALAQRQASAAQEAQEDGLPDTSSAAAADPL
Protocol: EHMT1 enzyme assay on peptide substrate (EHMT1 PEP)
Assay type: biochemical
Conditions used: Table II; read-out: EHMT1 PEP (IC50 μM)
Items are presented alongside their recorded IC50.

Solved entries (count: 3):
COc1ccc(Nc2nccc(NCC3CCNCC3)n2)cc1OCC(O)CN1CCCC1 (centres unmarked)	< 0.1 µM
COc1ccc(Nc2cccc3cn(C)nc23)cc1OCCCN1CCCC1	> 10 µM
CNc1nc(Nc2ccc(OC)c(OCCCN3CCCC3)c2)ncc1C(F)(F)F	> 10 µM

// recorded IC50 for CCOC(=O)N1CCC(CNc2ccnc(Nc3ccc(OC)c(OCCCN4CCCC4)c3)n2)CC1 : 0.1 to 1 µM

Value of measured IC50 for the entry COc1ccc(Nc2nccc(N(C)Cc3ccccn3)n2)cc1OCCCN1CCCC1 : 1 to 10 µM

COc1ccc(Nc2ccc3ncc(C)n3n2)cc1OCCCN1CCCC1 yielded IC50 of 1 to 10 µM

IC50 reported for this compound COc1ccc(Nc2nccc(NCC3CCN(C(C)=O)CC3)n2)cc1OCCCN1CCCC1 : < 0.1 µM

The value of IC50 measured for the compound COc1ccc(Nc2nccc(N3CCOCC3)n2)cc1OCCCN1CCCC1 turned out to be > 10 µM
